System: LOX IMVI melanoma
Assay: NCI tumour cell line growth inhibition, 48 h
Value type: log10 of TGI (log10 of the value in µM)

# Compound, log10 of TGI
rows = [
    ("O=c1[nH]ccc2nc(N3CCC(O)CC3)nc(Nc3cccc(C(F)(F)F)c3)c12", 1.22),
    ("CCN(CC)C(=S)SNCc1ccc(S(N)(=O)=O)cc1", 1.46),
    ("Cc1ccc(C(=O)C(Cl)C(Cl)c2ccc(C)cc2)cc1 (stereo unspecified)", 0.58),
    ("C=CCN1C=CC(=O)[C@H](O[Si](C)(C)C(C)(C)C)[C@@H]1/C=C/c1ccccc1", 1.42),
    ("O=[N+]([O-])c1ccc(Nc2nc3ccccc3s2)cc1", 1.59),
    ("O=C(CC12CC3CC(CC(C3)C1)C2)NCCOCCOCCOCCNC(=O)c1cc2c(o1)C(=O)c1ccccc1C2=O", 0.38),
    ("CCCCCCCCC/C=C1\\CC(CO)(COC(=O)C2CCCCC2)OC1=O (stereo unspecified)", 1.38),
    ("COc1ccc2c(CN3CCC[C@H]3C(=O)O)cc3cc4c(cc3c2c1)OCO4", 1.64),
    ("COc1ccc(-c2nc3ncccn3c2/C=C/C(=O)c2cc(OC)c(OC)c(OC)c2)cc1", 0.48),
    ("N#Cc1sc2c(c1OC(=O)c1cccs1)c(=O)n(-c1ccccc1)c(=S)n2-c1ccccc1", 1.73),
    ("CCOC(=O)[C@@H]1ON2O[C@H](OC3CCCC3(c3ccccc3)c3ccccc3)C[C@H]3OC(=O)[C@@H]1C32 (stereo partly specified)", 1.94),
]
